Values compiled from ChEMBL document CHEMBL3751844.

System: MCF7
Procedure Summary: Growth inhibition of human MCF7 cells by MTT assay
Type: functional, cell-based
The reader will find reported pIC50 values listed item by item below.
Units for pIC50: none; it is -log10 of a concentration expressed in mol/L.

Previously resolved entries follow.
| Compound | Tgt | pIC50 |
| --- | --- | --- |
| CCCCCCCCCCCC(=O)Oc1cccc2c1C(=O)C=C(C)C2=O | MCF7 | 4.54 |
| CCCCCCCC/C=C\CCCCCCCC(=O)Oc1cccc2c1C(=O)C=CC2=O | MCF7 | 4.21 |
| CC(=O)Oc1cccc2c1C(=O)C=C(C)C2=O | MCF7 | 5.40 |
| C=CCOc1cccc2c1C(=O)C=CC2=O | MCF7 | 4.68 |
| CC(C)=CCOc1cccc2c1C(=O)C=CC2=O | MCF7 | 4.80 |
| CCCCCCCCCCCCCC(=O)Oc1cccc2c1C(=O)C=CC2=O | MCF7 | 4.52 |

Fill in the blank: the reported pIC50 of CCCCCCCCCCCCCCCC(=O)Oc1cccc2c1C(=O)C=CC2=O is ____. 4.07

Fill in the blank: the reported pIC50 of COc1cccc2c1C(=O)C=C(C)C2=O is ____. 5.30

Fill in the blank: the reported pIC50 of COc1cccc2c1C(=O)C=CC2=O is ____. 4.41

Fill in the blank: the reported pIC50 of CC(=O)Oc1cccc2c1C(=O)C=CC2=O is ____. 5.10

Fill in the blank: the reported pIC50 of CC1=CC(=O)c2c(O)cccc2C1=O [PLUMBAGIN] is ____. 5.52

----------
System: MCF7
Procedure Summary: Growth inhibition of human MCF7 cells by MTT assay
Format: functional, cell-based
pIC50: −log10 of the molar value.
Values of pIC50 greater than or equal to 5 map to class 1; values below map to class 0.

Past entries and their recorded results:
| Structure Notation | Assigned Category |
| --- | --- |
| CC(C)=CCOc1cccc2c1C(=O)C=C(C)C2=O | class 1 |
| CC(C)=CCC/C(C)=C/COc1cccc2c1C(=O)C=CC2=O | class 0 |
| CCCCCCCCCCCC(=O)Oc1cccc2c1C(=O)C=CC2=O | class 0 |
| CCOc1cccc2c1C(=O)C=C(C)C2=O | class 1 |
| CCCCCCCCCCCCCCCC(=O)Oc1cccc2c1C(=O)C=C(C)C2=O | class 0 |
| CCCCCCCC/C=C\CCCCCCCC(=O)Oc1cccc2c1C(=O)C=C(C)C2=O | class 0 |

Next item in the queue.
Determine whether this compound has pIC50 no lower than 5: C=CCOc1cccc2c1C(=O)C=C(C)C2=O class 1

----------
The reader will find reported IC50 values listed item by item below.
Procedure Summary: Growth inhibition of human Hs683 cells by MTT assay
Type: functional, cell-based
Setup Conditions: Hs 683
Report the figure in µM without appending any unit label.

| Structure Notation | Result Unit | IC50 |
| --- | --- | --- |
| COc1cccc2c1C(=O)C=C(C)C2=O | µM | 3 |

Fill in the blank: the reported IC50 of CC(C)=CCOc1cccc2c1C(=O)C=C(C)C2=O is ____. 3

Fill in the blank: the reported IC50 of CCCCCCCCCCCCCCCC(=O)Oc1cccc2c1C(=O)C=C(C)C2=O is ____. 33

Fill in the blank: the reported IC50 of CC(C)=CCC/C(C)=C/COc1cccc2c1C(=O)C=C(C)C2=O is ____. 22

Fill in the blank: the reported IC50 of CC(=O)Oc1cccc2c1C(=O)C=CC2=O is ____. 23

Fill in the blank: the reported IC50 of CCCCCCCCCCCCCCCCCC(=O)Oc1cccc2c1C(=O)C=CC2=O is ____. 67
